The origin of these recorded values is ChEMBL document CHEMBL5029169.

- target_system: Mitogen-activated protein kinase kinase kinase 9 (Homo sapiens) (UniProt P80192)
- Sequence (P80192 whole entry, looked up): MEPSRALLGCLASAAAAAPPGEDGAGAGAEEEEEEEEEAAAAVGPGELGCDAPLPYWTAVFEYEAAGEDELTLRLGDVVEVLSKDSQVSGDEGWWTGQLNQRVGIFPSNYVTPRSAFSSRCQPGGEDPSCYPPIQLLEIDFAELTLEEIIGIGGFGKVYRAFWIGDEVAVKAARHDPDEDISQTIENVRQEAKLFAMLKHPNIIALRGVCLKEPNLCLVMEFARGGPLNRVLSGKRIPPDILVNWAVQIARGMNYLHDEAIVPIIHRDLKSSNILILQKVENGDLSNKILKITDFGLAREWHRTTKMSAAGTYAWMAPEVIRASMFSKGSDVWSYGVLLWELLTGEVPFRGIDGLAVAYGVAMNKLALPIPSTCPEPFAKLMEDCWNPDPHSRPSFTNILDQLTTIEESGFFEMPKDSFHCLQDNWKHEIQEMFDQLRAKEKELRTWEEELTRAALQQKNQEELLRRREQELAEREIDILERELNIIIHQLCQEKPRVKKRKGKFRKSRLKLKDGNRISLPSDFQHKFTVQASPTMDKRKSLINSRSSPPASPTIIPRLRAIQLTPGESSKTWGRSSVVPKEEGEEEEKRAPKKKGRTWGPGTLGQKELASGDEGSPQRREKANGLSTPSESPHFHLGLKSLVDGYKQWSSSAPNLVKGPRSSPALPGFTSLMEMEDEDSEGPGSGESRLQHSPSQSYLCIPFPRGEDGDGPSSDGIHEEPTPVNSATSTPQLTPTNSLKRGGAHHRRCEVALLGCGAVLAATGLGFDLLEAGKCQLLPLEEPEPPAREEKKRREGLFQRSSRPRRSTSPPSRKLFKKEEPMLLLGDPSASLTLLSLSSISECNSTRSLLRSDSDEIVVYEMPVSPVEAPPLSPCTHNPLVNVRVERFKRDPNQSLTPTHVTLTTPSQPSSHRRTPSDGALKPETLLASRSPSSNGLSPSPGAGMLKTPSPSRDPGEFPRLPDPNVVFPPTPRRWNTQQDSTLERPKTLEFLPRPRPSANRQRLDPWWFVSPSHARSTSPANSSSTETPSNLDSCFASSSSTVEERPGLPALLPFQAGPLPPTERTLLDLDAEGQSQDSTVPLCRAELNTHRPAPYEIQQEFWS
- measurement_description: Inhibition of MAP3K9 (unknown origin) at 1 uM measured after 1 hr relative to control
assay_metric: inhibition (%)

> print(dat)
                                smiles.text  experimental.value
1  C=CC(=O)N1CCC2(CC1)CNC(=O)c1cc(-c3ccnc(Nc4ccccc4OC)n3)[nH]c12                  75
2  C=CC(=O)Nc1cc(Nc2nccc(-c3cn(C)c4ccccc34)n2)c(OC)cc1N(C)CCN(C)C                  71
3  C=CC(=O)N1CCC2(CC1)CNC(=O)c1cc(-c3ccnc(Nc4ccccc4OC(C)C)n3)[nH]c12                  38
4  C=CC(=O)N1CCC2(CC1)CNC(=O)c1cc(-c3nc(Nc4ccccc4OC)ncc3C)[nH]c12                  98
5  C=CC(=O)N1CCC2(CC1)CNC(=O)c1cc(-c3ccnc(Nc4ccccc4OC)c3)[nH]c12                   1

---

- target_system: Serine/threonine-protein kinase BRSK1 (Homo sapiens) (UniProt Q8TDC3)
- Sequence (Q8TDC3 whole entry): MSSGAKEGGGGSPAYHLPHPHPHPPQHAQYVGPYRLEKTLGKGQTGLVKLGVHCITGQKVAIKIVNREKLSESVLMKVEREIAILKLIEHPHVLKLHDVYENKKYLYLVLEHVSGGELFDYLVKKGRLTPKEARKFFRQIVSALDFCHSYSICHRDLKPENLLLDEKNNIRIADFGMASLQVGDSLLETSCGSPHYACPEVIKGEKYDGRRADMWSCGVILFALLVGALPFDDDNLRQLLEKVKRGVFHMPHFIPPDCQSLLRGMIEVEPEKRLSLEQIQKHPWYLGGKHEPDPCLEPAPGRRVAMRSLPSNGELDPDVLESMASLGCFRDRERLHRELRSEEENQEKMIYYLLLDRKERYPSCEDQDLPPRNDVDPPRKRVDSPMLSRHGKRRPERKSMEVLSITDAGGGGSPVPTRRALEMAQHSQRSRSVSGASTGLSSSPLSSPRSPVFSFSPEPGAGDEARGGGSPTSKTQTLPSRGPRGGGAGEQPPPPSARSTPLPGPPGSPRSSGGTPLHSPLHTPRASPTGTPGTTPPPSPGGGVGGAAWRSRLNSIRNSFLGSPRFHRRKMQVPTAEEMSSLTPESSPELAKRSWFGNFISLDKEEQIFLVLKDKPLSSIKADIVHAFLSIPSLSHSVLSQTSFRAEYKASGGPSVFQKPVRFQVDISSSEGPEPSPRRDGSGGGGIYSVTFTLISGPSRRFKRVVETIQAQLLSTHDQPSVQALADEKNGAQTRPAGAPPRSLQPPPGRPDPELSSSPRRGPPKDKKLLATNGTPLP
- measurement_description: Inhibition of BRSK1 (unknown origin) at 1 uM measured after 1 hr relative to control
assay_metric: inhibition (%)

> print(dat)
                                   molecule  experimental.value
1  C=CC(=O)Nc1cc(Nc2nccc(-c3cn(C)c4ccccc34)n2)c(OC)cc1N(C)CCN(C)C [OSIMERTINIB]                   7
2  C=CC(=O)N1CCC2(CC1)CNC(=O)c1cc(-c3ccnc(Nc4ccccc4OC)n3)[nH]c12                  18
3  C=CC(=O)N1CCC2(CC1)CNC(=O)c1cc(-c3nc(Nc4ccccc4OC)ncc3C)[nH]c12                   0
4  C=CC(=O)N1CCC2(CC1)CNC(=O)c1cc(-c3ccnc(Nc4ccccc4OC(C)C)n3)[nH]c12                   4
5  C=CC(=O)N1CCC2(CC1)CNC(=O)c1cc(-c3ccnc(Nc4ccccc4OC)c3)[nH]c12                  18

---

compounds and their reported pIC50
- target_system: Epidermal growth factor receptor (Homo sapiens, UniProt P00533, L858R/T790M)
- Sequence (P00533 25-1210 T790M/L858R limits assumed): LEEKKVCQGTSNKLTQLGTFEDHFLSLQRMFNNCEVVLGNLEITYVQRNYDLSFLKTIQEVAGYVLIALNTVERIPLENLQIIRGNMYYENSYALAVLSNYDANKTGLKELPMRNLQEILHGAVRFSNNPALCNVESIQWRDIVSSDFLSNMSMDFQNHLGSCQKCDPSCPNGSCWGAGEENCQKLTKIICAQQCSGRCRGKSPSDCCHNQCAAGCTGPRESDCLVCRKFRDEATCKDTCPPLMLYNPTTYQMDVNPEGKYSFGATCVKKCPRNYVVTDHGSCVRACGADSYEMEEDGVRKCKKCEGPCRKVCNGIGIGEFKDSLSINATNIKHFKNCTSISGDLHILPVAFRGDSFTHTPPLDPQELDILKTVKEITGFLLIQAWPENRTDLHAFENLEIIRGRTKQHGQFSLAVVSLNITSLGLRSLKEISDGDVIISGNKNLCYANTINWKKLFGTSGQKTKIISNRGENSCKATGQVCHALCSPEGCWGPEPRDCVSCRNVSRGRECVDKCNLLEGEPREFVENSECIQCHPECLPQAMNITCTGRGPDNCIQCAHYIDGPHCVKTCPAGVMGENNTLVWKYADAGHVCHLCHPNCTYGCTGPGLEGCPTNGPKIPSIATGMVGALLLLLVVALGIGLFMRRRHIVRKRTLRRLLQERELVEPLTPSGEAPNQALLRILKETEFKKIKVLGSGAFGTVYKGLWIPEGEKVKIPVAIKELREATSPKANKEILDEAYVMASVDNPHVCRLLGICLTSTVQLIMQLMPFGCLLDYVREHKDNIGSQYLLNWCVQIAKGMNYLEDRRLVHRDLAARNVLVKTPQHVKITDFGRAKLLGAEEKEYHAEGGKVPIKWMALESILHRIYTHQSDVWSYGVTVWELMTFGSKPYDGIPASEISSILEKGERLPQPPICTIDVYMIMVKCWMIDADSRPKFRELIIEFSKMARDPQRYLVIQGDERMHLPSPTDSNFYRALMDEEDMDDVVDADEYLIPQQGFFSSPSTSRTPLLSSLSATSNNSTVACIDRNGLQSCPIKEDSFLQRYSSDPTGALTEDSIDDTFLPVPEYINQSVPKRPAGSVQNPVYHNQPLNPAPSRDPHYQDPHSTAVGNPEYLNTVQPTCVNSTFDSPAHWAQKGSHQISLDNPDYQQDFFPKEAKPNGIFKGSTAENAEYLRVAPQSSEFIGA
- measurement_description: Inhibition of EGFR T790M/L858R double mutant (unknown origin) preincubated for 60 mins followed by substrate addition and further incubated for 60 mins in presence of ATP by IMAP-FP assay
pIC50: −log10 of the molar value.
assay_metric: pIC50

> print(dat)
                                smiles.text  experimental.value
1  CC#CC(=O)Nc1cccc(-c2nccc(-c3cc4c([nH]3)C3(CCNCC3)CNC4=O)n2)c1                6.30
2  C=CC(=O)N1CCC2(CC1)CNC(=O)c1cc(-c3ccnc(Nc4ccccc4OC(C)C)n3)[nH]c12                8.89
3  C=CC(=O)N1CCC2(CC1)CNC(=O)c1cc(-c3ccnc(Nc4ccccc4OC)n3)[nH]c12                9.05
4  C=CC(=O)N1CCC2(CC1)CNC(=O)c1cc(-c3nc(Nc4ccccc4OC)ncc3Cl)[nH]c12                9.10
5  C=CC(=O)N1CCC2(CC1)CNC(=O)c1cc(-c3ccnc(Nc4ccccc4OC)c3)[nH]c12                7.43
6  COc1ccccc1Nc1nccc(-c2cc3c([nH]2)C2(CCN(C(=O)C#CN(C)C)CC2)CNC3=O)n1                8.55
7  C=CC(=O)N1CCC2(CC1)CNC(=O)c1cc(-c3ccnc(-c4ccc5c(c4)OCO5)n3)[nH]c12                8.19
8  C=CC(=O)N1CCC2(CC1)CNC(=O)c1cc(-c3ccnc(-c4cccc(OC)c4)n3)[nH]c12                8.02
9  C=CC(=O)N1CCC2(CC1)CNC(=O)c1cc(-c3nc(Nc4ccccc4OC)ncc3C)[nH]c12                8.92
